target-or-system: Recombinant (1-346) HPK1 (h) (Homo sapiens)
Construct: Recombinant (1-346) HPK1 (h) is incubated with 8 mM MOPS pH 7.0
Sequence (Q92918 1-346): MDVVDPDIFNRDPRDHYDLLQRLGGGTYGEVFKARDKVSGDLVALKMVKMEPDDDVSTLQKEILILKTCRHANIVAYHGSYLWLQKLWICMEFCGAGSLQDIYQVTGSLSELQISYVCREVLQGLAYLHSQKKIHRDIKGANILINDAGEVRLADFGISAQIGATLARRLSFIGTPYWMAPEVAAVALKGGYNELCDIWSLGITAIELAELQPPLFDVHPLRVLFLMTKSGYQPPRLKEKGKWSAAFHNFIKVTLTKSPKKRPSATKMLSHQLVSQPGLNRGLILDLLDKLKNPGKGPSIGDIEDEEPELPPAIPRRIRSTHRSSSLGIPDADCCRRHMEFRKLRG
experiment: HPK1 Human STE Kinase Enzymatic Radiometric Assay
Assay type: biochemical
pIC50: −log10 of the molar value.
What pIC50 was measured for each of the following?

Measured pIC50, CC(C)(C)OC(=O)N1CCC2(CC1)OCc1cc(-c3cc(-c4ccc5c(c4)CCNC5=O)c(N)nc3F)ccc1O2 [I-173] : 7.00 to 7.96

Recorded pIC50 (molecule CC(=O)N1CCC2(CC1)OCc1cc(-c3cc(-c4ccc5c(c4)CCNC5=O)c(N)nc3F)ccc1O2 [I-191] ): 8.00 to 10.00

pIC50 reported for this molecule Nc1nc(F)c(-c2ccc3c(c2)COC2(CCNCC2)O3)cc1-c1ccc2c(c1)CCNC2=O [I-181] : 8.00 to 10.00

* * *

target-or-system: Recombinant (1-346) HPK1 (h) (Homo sapiens)
Construct: Recombinant (1-346) HPK1 (h) is incubated with 8 mM MOPS pH 7.0
experiment: HPK1 Human STE Kinase Enzymatic Radiometric Assay
Format: biochemical
study-conditions: read-out: HPK1 IC50 nM Range*
metric-name: IC50

// field: IC50; key: Nc1nc(F)c(-c2ccc(OC3CCOCC3)cc2)cc1-c1ccc2c(c1)CCNC2=O ; value = 0.1 to 10 nM

# IC50 of Cc1nc2cc(-c3cc(-c4ccc(N5CCN(CCCC(F)F)CC5)cc4)c(F)nc3N)ccc2c(=O)[nH]1 = 0.1 to 10 nM

GET /value?item= COCCN1CCC(F)(c2ccc(-c3cc(-c4ccc5c(c4)CCNC5=O)c(N)nc3F)cc2)CC1 &field=IC50 returns 0.1 to 10 nM

Value of IC50 reported for the compound CN(C)[C@@H]1CCOc2ccc(-c3cc(-c4ccc5c(=O)[nH]cc(F)c5c4)c(N)nc3F)cc21 is 11 to 100 nM

// IC50 value for CNCc1nc2cc(-c3cc(-c4ccc(N5CCN(C(C)C)CC5)cc4)c(F)nc3N)ccc2c(=O)[nH]1 : 11 to 100 nM

* * *

target-or-system: Lck (h) (Homo sapiens)
Sequence (P06239 whole entry): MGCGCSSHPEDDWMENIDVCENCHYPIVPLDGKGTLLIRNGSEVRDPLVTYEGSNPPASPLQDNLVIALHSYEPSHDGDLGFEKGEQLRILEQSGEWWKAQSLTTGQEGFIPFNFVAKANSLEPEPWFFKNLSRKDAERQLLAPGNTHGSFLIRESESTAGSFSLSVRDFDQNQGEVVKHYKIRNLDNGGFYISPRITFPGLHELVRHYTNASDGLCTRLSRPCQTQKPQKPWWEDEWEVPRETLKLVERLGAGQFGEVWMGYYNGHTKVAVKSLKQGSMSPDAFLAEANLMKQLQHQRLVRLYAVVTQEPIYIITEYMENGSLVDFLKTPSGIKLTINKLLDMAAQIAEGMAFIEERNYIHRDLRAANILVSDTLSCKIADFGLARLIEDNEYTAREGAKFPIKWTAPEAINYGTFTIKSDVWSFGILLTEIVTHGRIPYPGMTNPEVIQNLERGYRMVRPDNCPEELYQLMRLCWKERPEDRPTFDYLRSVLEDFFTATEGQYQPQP
experiment: Lck Human  Kinase Enzymatic Radiometric Assay
Format: biochemical
study-conditions: read-out: Lck IC50 nM Range*
Method: Lck (h) is incubated with 50 mM Tris pH 7.5, 0.1 mM EGTA, 0.1 mM Na3VO4, 250 uM KVEKIGEGTYGVVYK (Cdc2 peptide), 10 mM MgAcetate and [gamma-33P]-ATP (specific activity and concentration as required). The reaction is initiated by the addition of the Mg/ATP mix. After incubation for 40 minutes at RT, the reaction is stopped by the addition of phosphoric acid to a concentration of 0.5%. […]
Consider the following compounds; for each one, report its IC50.

Assay Lck (h) (Homo sapiens), sample CCN1CCN(c2ccc(-c3cc(-c4ccc5c(c4)C(C)(C)CNC5=O)c(N)nc3F)cc2)CC1 , IC50 read: 101 to 1000 nM

The measured IC50 that CC(C)N1CCN(c2ccc(-c3cc(-c4ccc5c(c4)CC(CN(C)C)NC5=O)c(N)nc3F)cc2)CC1 (stereo not shown) showed for Lck (h) (Homo sapiens) is > 1000 nM

Tested on Lck (h) (Homo sapiens): CC(=O)N1CCC(Oc2ccc(-c3cc(-c4ccc5c(c4)CCNC5=O)c(N)nc3F)cc2C#N)CC1 . Observed IC50: > 1000 nM

Record Nc1nc(F)c(-c2ccc(OC3CCN(C(=O)CC4CC4)CC3)cc2)cc1-c1ccc2c(c1)CCNC2=O / Lck (h) (Homo sapiens), IC50 recorded as > 1000 nM

Reading of IC50 for Nc1nc(F)c(-c2ccc(C3=CCN(CC(F)F)CC3)cc2)cc1-c1ccc2c(c1)CCNC2=O with Lck (h) (Homo sapiens): > 1000 nM

Per the reported Lck (h) (Homo sapiens) data, Cc1cc(-c2cc(-c3ccc4c(c3)CCNC4=O)c(N)nc2F)cc2c1CCN(C)C2 has IC50 of > 1000 nM

Param item: CC(C)N1CCC(c2ccc(-c3cc(-c4cc(F)c5c(c4)CCNC5=O)c(N)nc3F)cc2)CC1 ; param system: Lck (h) (Homo sapiens); output IC50: 101 to 1000 nM

The compound CCN1CCC(c2ccc(-c3cc(-c4ccc5c(c4)CCNC5=O)c(N)nc3F)cc2)C1 (stereo not shown) , when measured on Lck (h) (Homo sapiens), yielded IC50 of > 1000 nM

Summary line: Nc1nc(F)c(-c2ccc(N3CCNCC3)cc2)cc1-c1cc2c(cc1F)C(=O)NCC2 [I-172, 2,2,2-trifluoroacetate] , Lck (h) (Homo sapiens), reported IC50 = > 1000 nM

Query CN(C)S(=O)(=O)c1ccc(-c2cc(-c3ccc4c(c3)CCNC4=O)c(N)nc2F)cc1 on Lck (h) (Homo sapiens); IC50 returned: > 1000 nM

Measured IC50 for this entry CC(C)N1CCN(c2ccc(-c3cc(-c4cc5nc[nH]c(=O)c5cc4F)c(N)nc3F)cc2)CC1 on Lck (h) (Homo sapiens): > 1000 nM

Item: Nc1nc(F)c(-c2ccc3c(c2)C(=O)CC2(CCNCC2)O3)cc1-c1ccc2c(c1)CCNC2=O [I-182, 2,2,2-trifluoroacetate] | System: Lck (h) (Homo sapiens) | IC50: > 1000 nM

Known value: Lck (h) (Homo sapiens) IC50 of the compound CO[C@@H](C)CN1CCN(c2ccc(-c3cc(-c4ccc5c(c4)CCNC5=O)c(N)nc3F)cc2)CC1 equals > 1000 nM

Lck (h) (Homo sapiens) assay, compound CC(C)[C@@H]1CN(c2ccc(-c3cc(-c4cc(F)c5c(c4)CCNC5=O)c(N)nc3F)cc2)CCO1 , recorded IC50 = > 1000 nM

// compound C[C@H]1CC(Oc2ccc(-c3cc(-c4ccc5c(c4)CCNC5=O)c(N)nc3F)cc2)C[C@H](C)N1 (stereo partly shown) , assay Lck (h) (Homo sapiens), IC50 value: 101 to 1000 nM

Record for COCCN1CCC(F)(c2ccc(-c3cc(-c4ccc5c(c4)CCNC5=O)c(N)nc3F)cc2)CC1 under target or system Lck (h) (Homo sapiens): IC50 reported as > 1000 nM

* * *

What IC50 was measured for each of the following?
target-or-system: Recombinant (1-346) HPK1 (h) (Homo sapiens)
Construct: Recombinant (1-346) HPK1 (h) is incubated with 8 mM MOPS pH 7.0
experiment: HPK1 Human STE Kinase Enzymatic Radiometric Assay
Assay type: biochemical
study-conditions: read-out: HPK1 IC50 nM Range*
Procedure: A stock solution of 10 mM of test compound is prepared in DMSO. The compound plate was prepared by 3-fold and 9-point serial dilutions. […] The reaction is initiated by The addition of the Mg/ATP mix. After incubation for 40 minutes at RT, the reaction is stopped by the addition of phosphoric acid to a concentration of 0.5%.

Form field IC50 for item CN1CCN(C2(c3ccc(-c4cc(-c5ccc6c(c5)CCNC6=O)c(N)nc4F)cc3)CC2)CC1 on Recombinant (1-346) HPK1 (h) (Homo sapiens): 11 to 100 nM

Value (IC50, Recombinant (1-346) HPK1 (h) (Homo sapiens)) for record Nc1nc(F)c(-c2ccc(N3CCN(CC4CC4)CC3)cc2)cc1-c1cc2cc[nH]c(=O)c2cc1F = 0.1 to 10 nM

Test item Nc1nc(F)c(-c2ccc(N3CCN(CCCC(F)F)CC3)cc2)cc1-c1ccc2c(=O)[nH]cc(F)c2c1 ; Recombinant (1-346) HPK1 (h) (Homo sapiens); reported IC50 was 0.1 to 10 nM

GET /values?item= Cc1[nH]c(=O)c2c(F)cc(-c3cc(-c4ccc(C5CCOCC5)c(CN(C)C)c4)c(F)nc3N)cc2c1F &system= Recombinant (1-346) HPK1 (h) (Homo sapiens) returns IC50: 11 to 100 nM

IC50 of Nc1nc(F)c(-c2ccc(N3CCN(CC4CC4)CC3)cc2)cc1-c1cc2nc[nH]c(=O)c2cc1F , assay on Recombinant (1-346) HPK1 (h) (Homo sapiens), is 0.1 to 10 nM

// IC50 (Recombinant (1-346) HPK1 (h) (Homo sapiens)) for Nc1nc(F)c(-c2ccc(N3CCOCC3)c(CN3CCC3)c2F)cc1-c1cc2c(cc1F)C(=O)NCC2 = 11 to 100 nM

Tested system Recombinant (1-346) HPK1 (h) (Homo sapiens); IC50 recorded for CN(C)Cc1nc(-c2cc(-c3cc4c(cc3F)C(=O)NCC4)c(N)nc2F)ccc1N1CCOCC1 was 0.1 to 10 nM

Short answer on Recombinant (1-346) HPK1 (h) (Homo sapiens) for Cc1c[nH]c(=O)c2ccc(-c3cc(-c4ccc(C5CCOCC5)c(CN(C)C)c4)c(F)nc3N)cc12 , IC50: 0.1 to 10 nM

# value of IC50, Recombinant (1-346) HPK1 (h) (Homo sapiens), item CC(C)N1CCC(Oc2ccc(-c3cc(-c4ccc5c(c4)CCNC5=O)c(N)nc3F)c(F)c2F)CC1 = 11 to 100 nM

Item Cc1c[nH]c(=O)c2ccc(-c3cc(-c4ccc(F)c(CN(C)C)c4)c(F)nc3N)cc12 was tested on Recombinant (1-346) HPK1 (h) (Homo sapiens); the reported IC50 is 101 to 1000 nM

Recombinant (1-346) HPK1 (h) (Homo sapiens) assay, compound CCN(CC)S(=O)(=O)c1ccc(-c2cc(-c3ccc4c(c3)CCNC4=O)c(N)nc2F)cc1 , recorded IC50 = 11 to 100 nM

Measured IC50 (Recombinant (1-346) HPK1 (h) (Homo sapiens)), entry COCCN1CCN(Cc2cccc(-c3cc(-c4ccc5c(c4)CCNC5=O)c(N)nc3F)c2)CC1 : 101 to 1000 nM

IC50 for Recombinant (1-346) HPK1 (h) (Homo sapiens) with input CN(C)Cc1cc(-c2cc(-c3ccc4c(=O)[nH]ccc4c3)c(N)nc2F)ccc1N1CCN(CCCC(F)F)CC1 equals 0.1 to 10 nM

Summary line: Nc1nc(F)c(-c2cccc([C@@H]3CCCN3)c2)cc1-c1ccc2c(c1)CCNC2=O , Recombinant (1-346) HPK1 (h) (Homo sapiens), reported IC50 = 0.1 to 10 nM

// assay Recombinant (1-346) HPK1 (h) (Homo sapiens), entry Cc1[nH]c(=O)c2c(F)cc(-c3cc(-c4ccc(N5CCN(CC6CC6)CC5)cc4)c(F)nc3N)cc2c1F , IC50 value = 0.1 to 10 nM

The measured IC50 that Nc1nc(F)c(-c2ccc(OC3CN(C(=O)CC4CC4)C3)cc2)cc1-c1ccc2c(c1)CCNC2=O showed for Recombinant (1-346) HPK1 (h) (Homo sapiens) is 0.1 to 10 nM

Readout IC50 for C[C@@H]1CN(c2ccc(-c3cc(-c4cc5c(cc4F)C(=O)NCC5)c(N)nc3F)cc2CN(C)C)C[C@H](C)O1 , test system Recombinant (1-346) HPK1 (h) (Homo sapiens), was 11 to 100 nM

The measured IC50 that N#Cc1cc(-c2cc(-c3cc4c(cc3F)C(=O)NCC4)c(N)nc2F)ccc1OC1CCN(CC(F)(F)F)CC1 showed for Recombinant (1-346) HPK1 (h) (Homo sapiens) is 11 to 100 nM

Form: item CCN1CCOC(c2ccc(-c3cc(-c4ccc5c(c4)CCNC5=O)c(N)nc3F)cc2)C1 (stereo not shown) ; test system Recombinant (1-346) HPK1 (h) (Homo sapiens); IC50: 11 to 100 nM

Assay Recombinant (1-346) HPK1 (h) (Homo sapiens), sample Nc1nc(F)c(-c2ccc(OC3CCNCC3)c(F)c2F)cc1-c1ccc2c(c1)CCNC2=O , IC50 read: 11 to 100 nM

// assay Recombinant (1-346) HPK1 (h) (Homo sapiens), entry CN(C)Cc1cc(-c2cc(-c3cc4c(cc3F)C(=O)NCC4)c(N)nc2F)ccc1N1CCN(C2CC2)CC1 , IC50 value = 11 to 100 nM

The measured IC50 that CCN1CCN(c2ccc(-c3cc(-c4cc(F)c5c(=O)[nH]ccc5c4)c(N)nc3F)cc2)CC1 showed for Recombinant (1-346) HPK1 (h) (Homo sapiens) is 0.1 to 10 nM

The recorded IC50 with Recombinant (1-346) HPK1 (h) (Homo sapiens) for CCN1CC=C(c2ccc(-c3cc(-c4cc5c(cc4F)C(=O)NCC5)c(N)nc3F)cc2)CC1 was 0.1 to 10 nM

Lab note: compound CN(C)Cc1cc(-c2cc(-c3cc4c(cc3F)C(=O)NCC4)c(N)nc2F)ccc1OCC1CCOCC1 tested on Recombinant (1-346) HPK1 (h) (Homo sapiens); recorded IC50 was 0.1 to 10 nM

Recombinant (1-346) HPK1 (h) (Homo sapiens) data for Cc1nc2cc(-c3cc(-c4ccc(N5C[C@@H](C)O[C@@H](C)C5)c(CN(C)C)c4)c(F)nc3N)ccc2c(=O)[nH]1 ; its IC50: 11 to 100 nM

Observed IC50 on Recombinant (1-346) HPK1 (h) (Homo sapiens), entry CN(C)Cc1cc(-c2cc(-c3cc4c(cc3F)C(=O)NCC4)c(N)nc2F)ccc1N1CCN(C2CCC2)CC1 , equals 0.1 to 10 nM

For Nc1nc(F)c(-c2ccc(CN3CCOCC3)cc2)cc1-c1cc(F)c2c(c1)CCNC2=O on Recombinant (1-346) HPK1 (h) (Homo sapiens), measured IC50 was 0.1 to 10 nM

Assay Recombinant (1-346) HPK1 (h) (Homo sapiens), sample Cc1[nH]c(=O)c2c(F)cc(-c3cc(-c4ccc(N5CCOCC5)c(CN(C)C)c4)c(F)nc3N)cc2c1F , IC50 read: 11 to 100 nM

Simply: Nc1nc(F)c(-c2ccc(N3CCCN4CCCC4C3)cc2)cc1-c1ccc2c(c1)CCNC2=O (stereo not shown) , Recombinant (1-346) HPK1 (h) (Homo sapiens), IC50 = 0.1 to 10 nM

The compound Nc1nc(F)c(-c2ccc(N3C[C@@H]4CCO[C@@H]4C3)cc2)cc1-c1ccc2c(c1)CCNC2=O on Recombinant (1-346) HPK1 (h) (Homo sapiens): IC50 was 0.1 to 10 nM

Bench note, Recombinant (1-346) HPK1 (h) (Homo sapiens): entry CC(C)N1CCN(c2ccc(-c3cc(-c4cc5cc[nH]c(=O)c5cc4F)c(N)nc3F)cc2)CC1 , its IC50 = 0.1 to 10 nM
